Attribute: enrichment ratio
B1: PhoQ; a variant is named by its letters at X, in order, P23837 (parent)
chain: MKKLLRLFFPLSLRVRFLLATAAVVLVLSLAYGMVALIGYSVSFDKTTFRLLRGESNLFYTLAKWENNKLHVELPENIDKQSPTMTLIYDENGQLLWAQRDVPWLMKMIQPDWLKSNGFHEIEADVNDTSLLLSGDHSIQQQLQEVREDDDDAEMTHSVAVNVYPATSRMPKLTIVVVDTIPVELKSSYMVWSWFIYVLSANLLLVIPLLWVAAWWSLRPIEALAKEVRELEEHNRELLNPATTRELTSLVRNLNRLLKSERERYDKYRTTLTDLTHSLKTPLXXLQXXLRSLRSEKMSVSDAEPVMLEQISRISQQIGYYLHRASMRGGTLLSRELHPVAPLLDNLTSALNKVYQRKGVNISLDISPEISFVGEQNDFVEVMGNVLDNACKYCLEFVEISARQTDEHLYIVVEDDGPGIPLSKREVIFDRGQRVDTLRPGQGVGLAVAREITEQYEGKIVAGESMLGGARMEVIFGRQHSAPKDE

Variants of: B1
Experiment: enrichment ratio after two sorts for PhoP signalling (ratio (wild type AVST 3.29)); higher = more functional
Details: with PhoP (E. coli)
Whole data set: some 140,000 sequences, median “enrichment ratio after two sorts for PhoP signalling” near 0, cut for the highest 2% near 11. This excerpt belongs to a sample that is enriched for the highest values.
measured_endpoint: enrichment ratio

INSERT INTO results (mutation_key, measured_endpoint, reported_measurement) VALUES
  ('QNKW', 'enrichment ratio', '≤ 0.25'),
  ('RIMF', 'enrichment ratio', '≤ 0.25'),
  ('KAMN', 'enrichment ratio', '≤ 0.25'),
  ('KKSE', 'enrichment ratio', '≤ 0.25'),
  ('ATYI', 'enrichment ratio', '≤ 0.25'),
  ('YTHN', 'enrichment ratio', '≤ 0.25'),
  ('TTPS', 'enrichment ratio', '≤ 0.25'),
  ('TAVG', 'enrichment ratio', '≤ 0.25'),
  ('HRQG', 'enrichment ratio', '≤ 0.25'),
  ('HSMH', 'enrichment ratio', '≤ 0.25'),
  ('ALMI', 'enrichment ratio', 17.6),
  ('ATPA', 'enrichment ratio', '≤ 0.25'),
  ('QPNH', 'enrichment ratio', '≤ 0.25'),
  ('ETHL', 'enrichment ratio', '≤ 0.25'),
  ('TDMK', 'enrichment ratio', 11.7),
  ('QPRN', 'enrichment ratio', '≤ 0.25'),
  ('TYKQ', 'enrichment ratio', '≤ 0.25'),
  ('AVMH', 'enrichment ratio', 11.8),
  ('YTEL', 'enrichment ratio', '≤ 0.25'),
  ('QQSH', 'enrichment ratio', '≤ 0.25'),
  ('AVCC', 'enrichment ratio', 8.73),
  ('TTMF', 'enrichment ratio', 20.9),
  ('YTHI', 'enrichment ratio', '≤ 0.25'),
  ('ATMI', 'enrichment ratio', 19.9),
  ('QQNS', 'enrichment ratio', 8.87),
  ('QENH', 'enrichment ratio', 70.4),
  ('TATV', 'enrichment ratio', 13.6),
  ('TAMG', 'enrichment ratio', 17.2),
  ('HSMV', 'enrichment ratio', 17),
  ('AVTM', 'enrichment ratio', 12.4),
  ('KDMK', 'enrichment ratio', '≤ 0.25');
